The measurements presented in this section are drawn from ChEMBL document CHEMBL1143909.

Target: Lanosterol 14-alpha demethylase (Homo sapiens, UniProt Q16850)
Sequence (Q16850 whole entry): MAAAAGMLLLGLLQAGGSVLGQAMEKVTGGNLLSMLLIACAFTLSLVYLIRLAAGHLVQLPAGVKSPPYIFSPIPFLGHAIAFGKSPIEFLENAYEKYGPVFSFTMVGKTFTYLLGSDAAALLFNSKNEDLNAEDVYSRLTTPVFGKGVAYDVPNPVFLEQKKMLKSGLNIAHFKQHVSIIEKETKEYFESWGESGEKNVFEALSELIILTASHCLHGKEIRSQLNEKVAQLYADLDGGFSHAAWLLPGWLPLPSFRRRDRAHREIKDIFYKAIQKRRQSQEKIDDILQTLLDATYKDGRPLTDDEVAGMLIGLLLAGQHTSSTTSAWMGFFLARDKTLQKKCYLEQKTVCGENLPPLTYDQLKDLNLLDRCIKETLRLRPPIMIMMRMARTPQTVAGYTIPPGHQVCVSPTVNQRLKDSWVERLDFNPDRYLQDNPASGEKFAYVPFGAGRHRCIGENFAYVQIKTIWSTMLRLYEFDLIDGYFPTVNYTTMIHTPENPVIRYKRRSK
PROPERTY LABEL: pKd
Just so you know, pKd here is -log10 of the concentration in molar units; reply with that number alone.

Answered cases to consult:
* Br.CCCN(CCc1ccc(OC)c(OC)c1)CC(O)c1cccnc1 (stereo not given) | 4.53
* Br.CCCN(CCc1ccc(F)c(F)c1)CC(O)c1cccnc1 (stereo not given) | 4.57
* CC(=O)N1CCN(c2ccc(OC[C@H]3CO[C@](Cn4ccnc4)(c4ccc(Cl)cc4Cl)O3)cc2)CC1 | 6.96

Request: Identify pKd associated with the compound Br.CCCN(CCc1cccnc1)CC(O)c1cccnc1 (stereo not given)
Result: 3.59
